Hi there, I'd appreciate the recorded inhibition for every entry that follows.
# target entity: Urease (Helicobacter pylori) (UniProt Q0PXQ5)
# Sequence (Q0PXQ5 as listed by the source): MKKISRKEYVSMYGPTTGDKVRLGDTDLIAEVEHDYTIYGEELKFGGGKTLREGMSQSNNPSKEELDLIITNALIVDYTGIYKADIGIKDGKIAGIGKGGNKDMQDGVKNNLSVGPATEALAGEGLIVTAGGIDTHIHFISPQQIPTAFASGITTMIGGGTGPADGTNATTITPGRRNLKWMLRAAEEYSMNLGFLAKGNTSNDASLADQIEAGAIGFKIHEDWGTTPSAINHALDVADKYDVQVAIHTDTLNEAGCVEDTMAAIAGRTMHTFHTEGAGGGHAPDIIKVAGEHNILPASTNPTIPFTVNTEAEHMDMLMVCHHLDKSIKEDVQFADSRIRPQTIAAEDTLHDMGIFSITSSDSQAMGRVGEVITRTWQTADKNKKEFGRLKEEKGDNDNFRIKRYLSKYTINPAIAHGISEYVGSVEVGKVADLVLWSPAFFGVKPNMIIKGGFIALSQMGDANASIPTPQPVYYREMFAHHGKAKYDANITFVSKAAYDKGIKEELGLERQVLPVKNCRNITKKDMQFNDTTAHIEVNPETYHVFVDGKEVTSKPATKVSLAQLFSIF
# assay comment: Inhibition of Campylobacter pylori urease preincubated for 5 mins followed by urea addition measured after 10 mins by Berthelot assay relative to control
# Parameters: concentration or dose not given beside the values
Could you give me the number in %? Just the number is fine.

Hi! What's the reported inhibition for `Cc1cccc(NC(=O)CCSc2nnc(Cc3csc(NC(=O)c4ccccc4)n3)o2)c1` on Urease (Helicobacter pylori) (UniProt Q0PXQ5)?
84.8

What do you have for `CCc1ccc(NC(=O)CCSc2nnc(Cc3csc(NC(=O)c4ccccc4)n3)o2)cc1` ?
74.2

What do you have for `Cc1ccc(C)c(NC(=O)CCSc2nnc(Cc3csc(NC(=O)c4ccccc4)n3)o2)c1` ?
77.9

---

# target entity: Urease (Helicobacter pylori) (UniProt Q0PXQ5)
# assay comment: Inhibition of Campylobacter pylori urease preincubated for 5 mins followed by urea addition measured after 10 mins by Berthelot assay relative to control
# Design: concentration or dose not given beside the values
quantity name: inhibition (%)
Could you give me the number in %? Just the number is fine.

For the compound shown here, `CCOc1ccc(NC(=O)CCSc2nnc(Cc3csc(NC(=O)c4ccccc4)n3)o2)cc1` , give the reported inhibition.
88.8

What do you have for `Cc1ccc(NC(=O)CCSc2nnc(Cc3csc(NC(=O)c4ccccc4)n3)o2)cc1` ?
76.4

What do you have for `Cc1cc(C)cc(NC(=O)CCSc2nnc(Cc3csc(NC(=O)c4ccccc4)n3)o2)c1` ?
64.8

What do you have for `CCc1ccccc1NC(=O)CCSc1nnc(Cc2csc(NC(=O)c3ccccc3)n2)o1` ?
98.7

What do you have for `Cc1cccc(C)c1NC(=O)CCSc1nnc(Cc2csc(NC(=O)c3ccccc3)n2)o1` ?
98.5

What do you have for `Cc1cccc(NC(=O)CCSc2nnc(Cc3csc(NC(=O)c4ccccc4)n3)o2)c1C` ?
69.8

What do you have for `Cc1ccc(NC(=O)CCSc2nnc(Cc3csc(NC(=O)c4ccccc4)n3)o2)cc1C` ?
76.5

What do you have for `Cc1ccccc1NC(=O)CCSc1nnc(Cc2csc(NC(=O)c3ccccc3)n2)o1` ?
98.2

What do you have for `O=C(CCSc1nnc(Cc2csc(NC(=O)c3ccccc3)n2)o1)Nc1ccccc1` ?
98.5

---

# target entity: Urease (Helicobacter pylori, UniProt Q0PXQ5)
# assay comment: Inhibition of Campylobacter pylori urease preincubated for 5 mins followed by urea addition measured after 10 mins by Berthelot assay
quantity name: pIC50
When answering, recall that pIC50 equals minus log10 of the concentration in mol/L, and write that number alone.

For the molecule shown here, `Cc1ccccc1NC(=O)CCSc1nnc(Cc2csc(NC(=O)c3ccccc3)n2)o1` , give the reported pIC50.
5.13

What do you have for `CCc1ccc(NC(=O)CCSc2nnc(Cc3csc(NC(=O)c4ccccc4)n3)o2)cc1` ?
4.36

What do you have for `O=C(CCSc1nnc(Cc2csc(NC(=O)c3ccccc3)n2)o1)Nc1ccccc1` ?
5.53

What do you have for `Cc1cccc(C)c1NC(=O)CCSc1nnc(Cc2csc(NC(=O)c3ccccc3)n2)o1` ?
5.55

What do you have for `Cc1ccc(NC(=O)CCSc2nnc(Cc3csc(NC(=O)c4ccccc4)n3)o2)cc1C` ?
4.47

What do you have for `Cc1ccc(NC(=O)CCSc2nnc(Cc3csc(NC(=O)c4ccccc4)n3)o2)cc1` ?
4.53

What do you have for `Cc1cc(C)cc(NC(=O)CCSc2nnc(Cc3csc(NC(=O)c4ccccc4)n3)o2)c1` ?
4.28

What do you have for `Cc1cccc(NC(=O)CCSc2nnc(Cc3csc(NC(=O)c4ccccc4)n3)o2)c1C` ?
4.32

What do you have for `Cc1cccc(NC(=O)CCSc2nnc(Cc3csc(NC(=O)c4ccccc4)n3)o2)c1` ?
4.91

What do you have for `CCc1ccccc1NC(=O)CCSc1nnc(Cc2csc(NC(=O)c3ccccc3)n2)o1` ?
5.59

What do you have for NC(N)=S [THIOUREA] ?
4.68

What do you have for `Cc1ccc(C)c(NC(=O)CCSc2nnc(Cc3csc(NC(=O)c4ccccc4)n3)o2)c1` ?
4.82

What do you have for `CCOc1ccc(NC(=O)CCSc2nnc(Cc3csc(NC(=O)c4ccccc4)n3)o2)cc1` ?
4.63

Each recorded value in this set is attributed to ChEMBL document CHEMBL4118270.
